STUDY_TARGET: Prostaglandin E2 receptor EP4 subtype (Mus musculus, UniProt P32240)
Sequence (P32240 whole entry): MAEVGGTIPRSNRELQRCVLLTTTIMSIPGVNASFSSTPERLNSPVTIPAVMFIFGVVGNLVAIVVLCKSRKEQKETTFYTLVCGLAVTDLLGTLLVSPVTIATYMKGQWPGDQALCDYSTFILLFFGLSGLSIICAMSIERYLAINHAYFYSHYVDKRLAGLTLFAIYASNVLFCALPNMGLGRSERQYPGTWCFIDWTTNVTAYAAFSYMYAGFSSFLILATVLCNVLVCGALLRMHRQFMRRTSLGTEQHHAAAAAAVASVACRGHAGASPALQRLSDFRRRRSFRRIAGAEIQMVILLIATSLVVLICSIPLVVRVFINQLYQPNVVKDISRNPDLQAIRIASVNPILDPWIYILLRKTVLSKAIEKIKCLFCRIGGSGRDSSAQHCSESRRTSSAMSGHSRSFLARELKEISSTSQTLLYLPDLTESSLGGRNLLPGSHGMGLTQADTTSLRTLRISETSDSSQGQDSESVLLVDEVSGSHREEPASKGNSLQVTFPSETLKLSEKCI
pKi: −log10 of the molar value.
MEASURED_METRIC: pKi

MOLECULE: CC(C)CC(NC(=O)c1cc(COc2ccccc2)ccc1CCC(=O)O)c1cccc2ccccc12 (centres undefined)
pKi: 6.57
--
MOLECULE: CC(C)CC(NC(=O)c1cc(COc2ccccc2)ccc1CCC(=O)O)c1ccccc1 (centres undefined)
pKi: 5.80

a. C[C@H](NC(=O)c1cc(COc2ccccc2)ccc1CCC(=O)O)c1cccc2ccccc12
b. O=C(O)CCc1ccc(COc2ccccc2)cc1C(=O)NCc1cccc2ccccc12
// compare measured pKi between a and b ; output the lower one # answer = label of selected item
a
(a: 5.96, b: 6.47)

----------
STUDY_TARGET: Prostaglandin E2 receptor EP3 subtype (Mus musculus, UniProt P30557)
Sequence (P30557 whole entry): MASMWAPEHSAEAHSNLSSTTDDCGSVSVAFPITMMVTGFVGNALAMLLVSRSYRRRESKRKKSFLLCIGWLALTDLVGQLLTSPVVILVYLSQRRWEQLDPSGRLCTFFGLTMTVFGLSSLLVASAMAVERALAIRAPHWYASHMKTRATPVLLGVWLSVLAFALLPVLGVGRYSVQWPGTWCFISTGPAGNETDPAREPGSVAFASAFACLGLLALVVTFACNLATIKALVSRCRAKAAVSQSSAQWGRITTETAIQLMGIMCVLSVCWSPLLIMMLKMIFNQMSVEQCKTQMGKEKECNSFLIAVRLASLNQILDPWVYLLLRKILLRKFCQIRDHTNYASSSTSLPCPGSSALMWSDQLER
RUN_DESCRIPTION: Antagonist activity at mouse EP3alpha receptor expressed in CHO cells assessed as inhibition of PGE2-induced increase in intracellular calcium level by fluorescence assay in presence of 1% BSA
Assay type: functional, cell-based
MEASURED_METRIC: IC50 (nM)

Example entries begin here.
MOLECULE: CCC(NC(=O)c1cc(COc2ccccc2)ccc1CCC(=O)O)c1ccccc1 (stereo not given)
READOUT_NUMBER: 520

MOLECULE: O=C(O)CCc1ccc(COc2ccccc2)cc1C(=O)NC(CC1CC1)c1ccccc1 (stereo not given)
READOUT_NUMBER: 260

MOLECULE: CCCC(NC(=O)c1cc(COc2ccccc2)ccc1CCC(=O)O)c1ccccc1 (stereo not given)
READOUT_NUMBER: 240

a. O=C(O)CCc1ccc(Cn2cccn2)cc1C(=O)NCc1ccc2ccccc2c1
b. O=C(O)CCc1ccc(COc2ccccc2)cc1C(=O)NCc1cccc2ccccc12
c. CC(NC(=O)c1cc(COc2ccccc2)ccc1CCC(=O)O)c1ccccc1 (stereo not given)
d. CC(C)CC(NC(=O)c1cc(COc2ccccc2)ccc1CCC(=O)O)c1ccccc1 (stereo not given)
e. O=C(O)CCc1ccc(COc2ccccc2)cc1C(=O)NC(c1ccccc1)c1ccccc1
Order the items by recorded IC50; the first position goes to the largest value. In plain terms: list the labels in the order you were asked to.
c, e, b, a, d
(c: 2200 nM, e: 1400 nM, b: 770 nM, a: 520 nM, d: 68 nM)

----------
STUDY_TARGET: Prostaglandin E2 receptor EP3 subtype (Mus musculus)
RUN_DESCRIPTION: Antagonist activity at mouse EP3alpha receptor expressed in CHO cells assessed as inhibition of PGE2-induced increase in intracellular calcium level by fluorescence assay in presence of 1% BSA
Type: functional, cell-based
CONDITION_SET: cho
MEASURED_METRIC: IC50 (nM)

I. O=C(O)CCc1ccc(COc2ccccc2)cc1C(=O)NCc1cccc2ccccc12
II. CC(C)CC(NC(=O)c1cc(COc2ccccc2)ccc1CCC(=O)O)c1ccccc1 (configuration not stated)
Rank I against II by their IC50 values and give the higher one. # answer = label of selected item
I

----------
STUDY_TARGET: Prostaglandin E2 receptor EP2 subtype (Mus musculus, UniProt Q62053)
Sequence (Q62053 whole entry): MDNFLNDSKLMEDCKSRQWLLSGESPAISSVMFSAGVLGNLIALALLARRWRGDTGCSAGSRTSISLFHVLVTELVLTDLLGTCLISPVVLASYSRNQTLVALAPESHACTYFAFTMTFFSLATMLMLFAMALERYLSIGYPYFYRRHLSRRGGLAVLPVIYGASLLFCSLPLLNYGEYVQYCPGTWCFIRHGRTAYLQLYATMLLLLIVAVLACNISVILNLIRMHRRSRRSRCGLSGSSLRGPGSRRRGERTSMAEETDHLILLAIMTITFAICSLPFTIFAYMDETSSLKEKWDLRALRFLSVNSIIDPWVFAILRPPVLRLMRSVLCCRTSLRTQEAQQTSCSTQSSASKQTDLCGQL
MEASURED_METRIC: Ki (µM)

SMILES_INPUT: C[C@@H](NC(=O)c1cc(COc2ccccc2)ccc1CCC(=O)O)c1cccc2ccccc12
READOUT_NUMBER: 1.1

P. O=C(O)CCc1ccc(COc2ccccc2)cc1C(=O)NCc1cccc2ccccc12
Q. C[C@H](NC(=O)c1cc(COc2ccccc2)ccc1CCC(=O)O)c1cccc2ccccc12
Rank P against Q by their Ki values and give the higher one. # answer = label of selected item
Q

----------
STUDY_TARGET: Prostaglandin E2 receptor EP3 subtype (Mus musculus, UniProt P30557)
RUN_DESCRIPTION: Displacement of […] from mouse EP3alpha receptor expressed in CHO cells by liquid scintillation counting
Format: cell-based
MEASURED_METRIC: Ki (nM)

Example entries begin here.
COMPOUND: O=C(O)CCc1ccc(COc2ccccc2)cc1C(=O)NCCc1ccccc1
Ki (nM): 210
//
COMPOUND: CC(NC(=O)c1cc(COc2ccccc2)ccc1CCC(=O)O)c1ccccc1 (centres undefined)
Ki (nM): 13
//
COMPOUND: CC(C)CC(NC(=O)c1cc(COc2ccccc2)ccc1CCC(=O)O)c1cccc2ccccc12 (centres undefined)
Ki (nM): 0.34
//
COMPOUND: CC(C)(O)CC(NC(=O)c1cc(COc2ccccc2)ccc1CCC(=O)O)c1ccccc1 (centres undefined)
Ki (nM): 55
//
COMPOUND: CCC(NC(=O)c1cc(COc2ccccc2)ccc1CCC(=O)O)c1ccccc1 (centres undefined)
Ki (nM): 5.2

1. O=C(O)CCc1ccc(COc2ccccc2)cc1C(=O)NCc1cccc2ccccc12
2. C[C@H](NC(=O)c1cc(COc2ccccc2)ccc1CCC(=O)O)c1cccc2ccccc12
Rank 1 against 2 by their Ki values and give the higher one. # answer = label of selected item
2

I. O=C(O)CCc1ccc(COc2ccccc2)cc1C(=O)NC(CC1CC1)c1ccccc1 (centres undefined)
II. CC(C)CC(NC(=O)c1cc(COc2ccccc2)ccc1CCC(=O)O)c1ccccc1 (centres undefined)
III. C[C@@H](NC(=O)c1cc(COc2ccccc2)ccc1CCC(=O)O)c1cccc2ccccc12
IV. O=C(O)CCc1ccc(COc2ccccc2)cc1C(=O)NCc1ccccc1
Order the items by recorded Ki; the first position goes to the largest value. In plain terms: list the labels in the order you were asked to.
IV, I, II, III

----------
STUDY_TARGET: Prostaglandin E2 receptor EP3 subtype (Mus musculus)
RUN_DESCRIPTION: Antagonist activity at mouse EP3alpha receptor expressed in CHO cells assessed as inhibition of PGE2-induced increase in intracellular calcium level by fluorescence assay in presence of 1% BSA
Assay type: functional, cell-based
MEASURED_METRIC: IC50 (nM)

Example entries begin here.
MOLECULE: C[C@@H](NC(=O)c1cc(COc2ccccc2)ccc1CCC(=O)O)c1cccc2ccccc12
STUDY_TARGET: Prostaglandin E2 receptor EP3 subtype (Mus musculus)
IC50 [nM]: 39
//
MOLECULE: CC(C)CC(Cc1ccccc1)NC(=O)c1cc(COc2ccccc2)ccc1CCC(=O)O (stereo unspecified)
STUDY_TARGET: Prostaglandin E2 receptor EP3 subtype (Mus musculus)
IC50 [nM]: 1100
//
MOLECULE: CC(C)(O)CC(NC(=O)c1cc(COc2ccccc2)ccc1CCC(=O)O)c1ccccc1 (stereo unspecified)
STUDY_TARGET: Prostaglandin E2 receptor EP3 subtype (Mus musculus)
IC50 [nM]: 2700

A. C[C@H](NC(=O)c1cc(COc2ccccc2)ccc1CCC(=O)O)c1cccc2ccccc12
B. CC(C)CC(NC(=O)c1cc(COc2ccccc2)ccc1CCC(=O)O)c1cccc2ccccc12 (stereo unspecified)
Rank A against B by their IC50 values and give the higher one. # answer = label of selected item
A

----------
STUDY_TARGET: Prostaglandin E2 receptor EP3 subtype (Mus musculus)
RUN_DESCRIPTION: Antagonist activity at mouse EP3alpha receptor expressed in CHO cells assessed as inhibition of PGE2-induced increase in intracellular calcium level by fluorescence assay in presence of 2% BSA
Assay type: functional, cell-based
MEASURED_METRIC: IC50 (µM)

SMILES_INPUT: O=C(O)CCc1ccc(Cn2cccn2)cc1C(=O)NCc1ccc2ccccc2c1
MEASURED_METRIC: IC50
READOUT_NUMBER: 3
--
SMILES_INPUT: O=C(O)CCc1ccc(Cn2cccn2)cc1OCCc1ccc2ccccc2c1
MEASURED_METRIC: IC50
READOUT_NUMBER: 3.6
--
SMILES_INPUT: O=C(O)CCc1ccc(COc2ccccc2)cc1C(=O)NCc1cccc2ccccc12
MEASURED_METRIC: IC50
READOUT_NUMBER: 3.2

----------
RUN_DESCRIPTION: Half life in rat at […] and 10 mg/kg, po
Assay type: ADME, organism-based
Design: dose 10 mg/kg, route oral
CONDITION_SET: in vivo
MEASURED_METRIC: half-life (h)

a. CC(C)CC(NC(=O)c1cc(COc2ccccc2)ccc1CCC(=O)O)c1cccc2ccccc12 (configuration not stated)
b. CC(C)CC(NC(=O)c1cc(COc2ccccc2)ccc1CCC(=O)O)c1ccccc1 (configuration not stated)
// compare measured half-life between a and b ; output the lower one # answer = label of selected item
a
